Recorded MIC for the following molecules
- Test system: Salmonella enterica subsp. enterica serovar Pullorum ATCC 7913

>  <SMILES_REPR>
NC(=O)[C@H](CCCN=C(N)N)NC(=O)[C@H](Cc1c[nH]c2ccccc12)NC(=O)[C@H](Cc1c[nH]c2ccccc12)NC(=O)[C@H](CCCN=C(N)N)NC(=O)[C@H](CCCN=C(N)N)NC(=O)[C@H](Cc1c[nH]c2ccccc12)NC(=O)[C@H](CCCN=C(N)N)NC(=O)[C@H](CCCN=C(N)N)NC(=O)[C@H](Cc1c[nH]c2ccccc12)NC(=O)[C@H](Cc1c[nH]c2ccccc12)NC(=O)[C@@H](N)CCCN=C(N)N

>  <MIC / µM>
4

$$$$
>  <SMILES_REPR>
CC(C)[C@H](NC(=O)[C@H](CCCN=C(N)N)NC(=O)[C@H](Cc1c[nH]c2ccccc12)NC(=O)[C@H](CCCN=C(N)N)NC(=O)[C@H](Cc1c[nH]c2ccccc12)NC(=O)[C@H](Cc1c[nH]c2ccccc12)NC(=O)[C@H](Cc1c[nH]c2ccccc12)NC(=O)[C@H](CCCN=C(N)N)NC(=O)[C@H](Cc1c[nH]c2ccccc12)NC(=O)[C@H](CCCN=C(N)N)NC(=O)CN)C(N)=O

>  <MIC / µM>
4

$$$$

###

So I've got MIC readings for Escherichia coli ML-35, take a look.

>  <COMPOUND>
CC(C)C[C@H](NC(=O)[C@H](Cc1ccc(O)cc1)NC(=O)[C@@H]1CCCN1C(=O)[C@@H]1CCCN1C(=O)[C@H](CCCN=C(N)N)NC(=O)[C@@H]1CCCN1C(=O)[C@H](CCCCN)NC(=O)[C@H](CCCCN)NC(=O)[C@@H](N)CCCCN)C(=O)N1CCC[C@H]1C(=O)N[C@@H](CCCN=C(N)N)C(=O)N1CCC[C@H]1C(=O)N[C@@H](CCCN=C(N)N)C(=O)N1CCC[C@H]1C(=O)N1CCC[C@H]1C(=O)O [KKKPRPPYLPRPRPP]

>  <SYSTEM_UNDER_TEST>
Escherichia coli ML-35

>  <RELATION_QUALIFIER>
=

>  <MIC [µM]>
2

$$$$
>  <COMPOUND>
CC[C@H](C)[C@H](NC(=O)[C@@H]1CCCN1C(=O)[C@H](CCCN=C(N)N)NC(=O)[C@@H]1CCCN1C(=O)CNC(=O)[C@@H]1CCCN1C(=O)[C@H](CCCN=C(N)N)NC(=O)[C@@H]1CCCN1C(=O)[C@H](Cc1ccccc1)NC(=O)[C@@H]1CCCN1C(=O)[C@H](CC(C)C)NC(=O)[C@@H]1CCCN1C(=O)[C@H](CCCN=C(N)N)NC(=O)[C@@H]1CCCN1)C(=O)O [PRPLPFPRPGPRPI]

>  <SYSTEM_UNDER_TEST>
Escherichia coli ML-35

>  <RELATION_QUALIFIER>
≥

>  <MIC [µM]>
128

$$$$
>  <COMPOUND>
CC[C@H](C)[C@H](N)C(=O)N[C@@H](CC(C)C)C(=O)NCC(=O)N[C@H](C(=O)N[C@H](C(=O)N[C@@H](CC(C)C)C(=O)NCC(=O)N1CCC[C@H]1C(=O)N[C@@H](CC(C)C)C(=O)N[C@@H](CCCCN)C(=O)NCC(=O)N[C@@H](CC(C)C)C(N)=O)[C@@H](C)CC)[C@@H](C)O [ILGTILGPLKGL]

>  <SYSTEM_UNDER_TEST>
Escherichia coli ML-35

>  <RELATION_QUALIFIER>
≥

>  <MIC [µM]>
256

$$$$
>  <COMPOUND>
CC[C@H](C)[C@H](NC(=O)[C@H](CCCN=C(N)N)NC(=O)[C@H](C)NC(=O)[C@H](CC(C)C)NC(=O)[C@H](CCCN=C(N)N)NC(=O)CNC(=O)[C@H](Cc1ccccc1)NC(=O)[C@@H](NC(=O)[C@H](CO)NC(=O)CNC(=O)[C@H](CC(C)C)NC(=O)CN)C(C)C)C(=O)N[C@@H](CC(C)C)C(=O)NCC(=O)N[C@@H](CCCN=C(N)N)C(=O)N[C@H](C(=O)N[C@H](C(=O)N1CCC[C@H]1C(=O)N[C@@H](CCCCN)C(=O)N[C@H](C(N)=O)C(C)C)[C@@H](C)CC)C(C)C [GLGSVFGRLARILGRVIPKV]

>  <SYSTEM_UNDER_TEST>
Escherichia coli ML-35

>  <RELATION_QUALIFIER>
=

>  <MIC [µM]>
2

$$$$
>  <COMPOUND>
CC[C@H](C)[C@H](N)C(=O)N[C@@H](CC(C)C)C(=O)NCC(=O)N[C@H](C(=O)N[C@H](C(=O)N[C@@H](CC(C)C)C(=O)N1CCC[C@H]1C(=O)N[C@@H](CC(C)C)C(=O)N[C@@H](CC(C)C)C(=O)N[C@@H](CCCCN)C(=O)NCC(=O)N[C@@H](CC(C)C)C(N)=O)[C@@H](C)CC)[C@@H](C)O [ILGTILPLLKGL]

>  <SYSTEM_UNDER_TEST>
Escherichia coli ML-35

>  <RELATION_QUALIFIER>
≥

>  <MIC [µM]>
256

$$$$

###

- System: Klebsiella pneumoniae ATCC 700603
Recorded MIC for the following molecules
MEASURE_NAME: MIC

>  <MOLECULE>
CC[C@H](C)[C@H](NC(=O)[C@H](CCCCN)NC(=O)[C@H](CCCCN)NC(=O)[C@@H](NC(=O)[C@@H](NC(=O)[C@H](CCCCN)NC(=O)[C@H](CCCCN)NC(=O)[C@@H](NC(=O)[C@@H](NC(=O)CN)[C@@H](C)CC)[C@@H](C)CC)[C@@H](C)CC)[C@@H](C)CC)C(N)=O [GIIKKIIKKI]

>  <MEASURE_NAME>
MIC

>  <VALUE_MEASURED>
≥ 128 µM

$$$$
>  <MOLECULE>
CC[C@H](C)[C@H](NC(=O)[C@@H](NC(=O)[C@H](C)NC(=O)[C@H](CCCCN)NC(=O)[C@H](C)NC(=O)[C@@H](NC(=O)[C@H](CCCCN)NC(=O)CNC(=O)[C@H](CC(C)C)NC(=O)[C@H](C)NC(=O)[C@@H](NC(=O)CNC(=O)[C@H](C)NC(=O)[C@H](CCCCN)NC(=O)[C@@H](NC(=O)[C@H](C)NC(=O)[C@H](CCSC)NC(=O)CN)[C@@H](C)O)[C@@H](C)O)C(C)C)C(C)C)C(=O)NCC(=O)N[C@@H](C)C(=O)N[C@@H](C)C(=O)N[C@@H](CC(C)C)C(N)=O [GMATKAGTALGKVAKAVIGAAL]

>  <MEASURE_NAME>
MIC

>  <VALUE_MEASURED>
> 50 µM

$$$$
>  <MOLECULE>
NC(=O)C[C@H](N)C(=O)N[C@@H](Cc1cnc[nH]1)C(=O)N[C@@H](Cc1cnc[nH]1)C(=O)N[C@@H](CCCN=C(N)N)C(=O)N[C@@H](CCCN=C(N)N)C(=O)N[C@@H](Cc1cnc[nH]1)C(=O)N[C@@H](Cc1cnc[nH]1)C(=O)N[C@@H](CCCN=C(N)N)C(=O)N[C@@H](CS)C(=O)N[C@@H](CCCN=C(N)N)C(=O)O [NHHRRHHRCR]

>  <MEASURE_NAME>
MIC

>  <VALUE_MEASURED>
> 22.7 µM

$$$$
>  <MOLECULE>
CC[C@H](C)[C@H](NC(=O)[C@H](C)N)C(=O)N[C@@H](CC(C)C)C(=O)N[C@@H](CCCN=C(N)N)C(=O)N[C@@H](CCCCN)C(=O)N[C@@H](C)C(=O)N[C@H](C(=O)N[C@@H](CCCN=C(N)N)C(=O)N[C@@H](CCCN=C(N)N)C(=O)N[C@@H](CC(C)C)C(=O)N[C@H](C(=O)N[C@@H](CCC(N)=O)C(=O)N[C@@H](CC(C)C)C(=O)N[C@H](C(=O)N[C@H](C(=O)N[C@@H](CO)C(=O)NCC(=O)O)C(C)C)[C@@H](C)CC)C(C)C)[C@@H](C)O [AILRKATRRLVQLIVSG]

>  <MEASURE_NAME>
MIC

>  <VALUE_MEASURED>
> 25 µM

$$$$
>  <MOLECULE>
CC[C@H](C)[C@H](NC(=O)[C@H](CC(=O)O)NC(=O)[C@H](Cc1ccccc1)NC(=O)[C@H](CC(C)C)NC(=O)CN)C(=O)N[C@H](C(=O)N[C@@H](CCCCN)C(=O)N[C@@H](CCCCN)C(=O)N[C@H](C(=O)N[C@H](C(=O)N[C@@H](CCCCN)C(=O)N[C@@H](CC(C)C)C(=O)N[C@@H](CC(C)C)C(=O)N[C@@H](CCCCN)C(N)=O)C(C)C)C(C)C)C(C)C [GLFDIVKKVVKLLK]

>  <MEASURE_NAME>
MIC

>  <VALUE_MEASURED>
> 20 µM

$$$$
